Data origin, for the record: patent US20250340659A1

Exercise: for every item that follows, state its recorded koff.
assayTarget: T1, recombinant canine OX40L ECD-TNCc-HIS protein (canine)
T1 construct: also called Trimeric OX40L probe (HIS tag); trimeric canine OX40L
T1 chain: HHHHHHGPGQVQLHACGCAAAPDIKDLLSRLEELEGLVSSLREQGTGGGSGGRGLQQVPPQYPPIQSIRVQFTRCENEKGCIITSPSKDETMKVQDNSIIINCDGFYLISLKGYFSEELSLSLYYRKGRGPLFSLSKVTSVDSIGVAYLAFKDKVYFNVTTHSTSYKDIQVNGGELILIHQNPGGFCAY
procedureDetails: SPR Koff (kd1)
Report the figure in s⁻¹ without appending any unit label.

Give me measured koff, please, for this binder: PMX155 (antibody, V domains shown) VH: ELHLVESGGDLVKPAGSLRLSCVASGFTFSSFRMSWVRQSPGKGLQFVAGINSDGYNTQYRDDVKGRFTISRDNTEKTLYLQMNNLRVEDTAMYYCVKDQGSWGGNFDFWGQGTLVTVSS VL: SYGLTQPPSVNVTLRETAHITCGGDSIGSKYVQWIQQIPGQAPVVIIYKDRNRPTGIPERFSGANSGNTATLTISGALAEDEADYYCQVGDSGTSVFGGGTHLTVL
0.032

Report koff for PMX038 (antibody, V domains shown, also called PMX38) VH: EVQLVESGGDLVKPGGSLRLSCVASGFTFSSYHMSWVRQAPGKGLQWVAYITSGGRTTSYADAVKGRFTISRDNAKNTLYLQMKSLRAEDTAVYYCARDLVLVLGGAEYWGQGTLVTVSS VL: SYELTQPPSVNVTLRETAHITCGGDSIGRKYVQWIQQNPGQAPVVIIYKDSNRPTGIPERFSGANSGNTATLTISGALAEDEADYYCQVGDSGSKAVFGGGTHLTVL
0.0105

Write down koff measured for item PMX050 (antibody, V domains shown, also called PMX50) VH: EVQLVESGGDLVKPEGSLRLSCVVSGFTFTTYDMSWVRQAPGKGLQWVAYITNDGRITTYTDAVKGRFTISRDNAKNTLYLQMNSLRTVDTGVYYCARHSSSWSRGRFGLDYWGHGTSVFVSS VL: SYVLTQLPSKNVTLKQPAHITCGGDNIGRKGVHWYQQKLGQAPVLIIYYDSSRPTGIPERFSGANSGNTATLTISGALAEDEADYYCQVWDNSASVFGGGTHLTVL
0.000525
